experiment: qHTS assay to identify small molecule agonists of the NFkB signaling pathway - cell viability counter screen (AID 1159515); settings: NFkB-bla ME-180 viability, CellTiter-Glo luminescence, 5 h; series mostly up to 61 µM; further: nearly all actives have a fitted effect of over 55% in size
Inconclusive results are not listed. Active and inactive are the calls of the source. The call rests on the fitted dose curve.
Labels: T for active, F for inactive

Compound	Class
O=C(Oc1ccccc1)c1ccccc1C(=O)Oc1ccccc1	F
CC(C)(C)c1ccc(C(=O)O)cc1	F
OC1(c2ccc(Cl)c(C(F)(F)F)c2)CCN(CCCC(c2ccc(F)cc2)c2ccc(F)cc2)CC1	T
CCCCCCCCCCCC[N+](C)(C)CCCCCCCCCCCC	T
O=C(O)c1c(Cl)cccc1Cl	F
Oc1ccc2c(c1)-c1ccccc1C2	F
CC(=O)N1CCN(c2ccc(OC[C@H]3CO[C@](Cn4ccnc4)(c4ccc(Cl)cc4Cl)O3)cc2)CC1	T
CCCCN(CCCC)C(=O)N(CCCC)CCCC	F
CCOC(=O)/C=C(C)/C=C/C=C(C)/C=C/c1c(C)cc(OC)c(C)c1C	F
O=C(O)c1cc(O)c2c(c1)C(=O)c1cccc(O)c1C2=O	F
C[C@]12CCC(=O)C=C1CC[C@@H]1[C@@H]2[C@@H](O)C[C@@]2(C)[C@H]1CC[C@]2(O)C(=O)COC(=O)CCC(=O)O	F
O=S1(=O)CC(Cl)(Cl)C(Cl)(Cl)C1	T
CC(C)(C)NC(=O)[C@@H]1C[C@@H]2CCCC[C@@H]2CN1C[C@@H](O)[C@H](Cc1ccccc1)NC(=O)[C@H](CC(N)=O)NC(=O)c1ccc2ccccc2n1	T
CC1=NC(C)OC1C (stereo not drawn)	F
C[n+]1cc2c3c(ccc2c2ccc4cc5c(cc4c21)OCO5)OCO3	T
O=C(OC[C@H]1O[C@@H](OC(=O)c2cc(O)c(O)c(OC(=O)c3cc(O)c(O)c(O)c3)c2)[C@H](OC(=O)c2cc(O)c(O)c(OC(=O)c3cc(O)c(O)c(O)c3)c2)[C@@H](OC(=O)c2cc(O)c(O)c(OC(=O)c3cc(O)c(O)c(O)c3)c2)[C@@H]1OC(=O)c1cc(O)c(O)c(OC(=O)c2cc(O)c(O)c(O)c2)c1)c1cc(O)c(O)c(OC(=O)c2cc(O)c(O)c(O)c2)c1	F
O=C(NOCC1CC1)c1ccc(F)c(F)c1Nc1ccc(I)cc1Cl	F
CCCCC(CC)COC(=O)c1ccccc1C(=O)O (stereo not drawn)	F
CNCc1cc(F)ccc1Oc1ccc(Cl)c(Cl)c1	F
O=C(Nc1cccc(Cl)c1)OCC#CCCl	F
Oc1ccc(N=Nc2ccccc2)cc1	F
O=c1[nH]cnc2nc[nH]c12	F
NC(=O)C1(N2CCCCC2)CCN(CCCN2c3ccccc3CCc3ccc(Cl)cc32)CC1	T
[Cl][Bi]([Cl])([c]1ccccc1)([c]1ccccc1)[c]1ccccc1	T
Cc1ccc2oc(CN(Cc3ccccc3)C(=O)Nc3c(F)cc(F)cc3F)c(-c3ccc(Cl)cc3)c2c1	F
CCOc1nc2cccc(C(=O)OC(C)OC(=O)OC3CCCCC3)c2n1Cc1ccc(-c2ccccc2-c2nn[nH]n2)cc1 (stereo not drawn)	T
CCCN(CCC)C(=O)C(CCC(=O)OCCCN1CCN(CCOC(=O)Cc2c(C)n(C(=O)c3ccc(Cl)cc3)c3ccc(OC)cc23)CC1)NC(=O)c1ccccc1 (stereo not drawn)	T
CCCCN1CCCC[C@H]1C(=O)Nc1c(C)cccc1C	F
CCCCCCCC[P+](CCCCCCCC)(CCCCCCCC)CCCCCCCC	T
Cc1cc(=O)oc2cc(N(C)C)ccc12	F
CCCCCCCCCCCCc1ccc(O)cc1	T
COC(=O)c1cc(Cl)ccc1OC	F
O=c1cccccc1O	F
CN(C)c1ccc(SC#N)cc1	T
O=C(N/N=C/c1ccccc1O)c1ccncc1	F
Cc1cccc(N(C)C(=S)Oc2ccc3c(c2)C2CCC3C2)c1 (stereo not drawn)	F
CCCCCCCCCCCCCCCC(=O)OC[C@H](O)[C@H]1OC(=O)C(O)=C1O	F
O=C(c1ccc(F)cc1)C1CCN(CCn2c(=O)[nH]c3ccccc3c2=O)CC1	F
CCCCCCCCCOC(=O)c1ccc(O)cc1	T
CCCC/C=C/CCCCO	F
CN1CCN(CCC(=O)N2c3ccccc3Sc3ccc(C(F)(F)F)cc32)CC1	F
COc1cc(-c2ccc(N=C=O)c(OC)c2)ccc1N=C=O	F
O=C(NO)C1(NS(=O)(=O)c2ccc(Oc3ccc(F)cc3)cc2)CCOCC1	F

* * *

experiment: A CellTox Green Cytotoxicity Assay to monitor cytotoxicity in HEK293 cells - 32 hour (AID 1224881); settings: CellTox Green fluorescence; series mostly up to 76.8 µM; further: nearly all actives have a fitted effect of over 40% in size
Inconclusive results are not listed. Calls of active or inactive are those of the source. Calls follow the shape of the dose curve; as a rule, active = well fitted activation curve with a large enough effect in the repeat runs; inconclusive = weak or mixed curves; inactive = flat fitted curve, though single readings scatter.
Labels: active, inactive

                                    compound     class
 0  Cc1[nH]cnc1C[C@H]1CCc2c(C)c3ccccc3n2C1=O    active
 1  CCN(CCC#N)c1ccc(N=Nc2c(Cl)cc([N+](=O)[O-])cc2Cl)cc1  inactive
 2  CCCCCCCCCCCCCCCC[N+](C)(C)CCN(Cc1ccc(OC)cc1)c1ncccn1    active
 3                 CC(C)CCCCCCCCCCCCCCC(=O)O  inactive
 4  Cn1cc(C(=O)[C@@H]2CCc3nc[nH]c3C2)c2ccccc21  inactive
 5  Cc1cc2c(cc1C(F)(F)F)N(C(=O)Nc1ccc(Oc3cccnc3C)nc1)CC2  inactive
 6  CC(C)(C)C1CCC(CC2=C(O)c3ccccc3C(=O)C2=O)CC1 (configuration not stated)    active
 7  Cc1c(C)c2c(c(C)c1O)CCC(C)(COc1ccc(CC3SC(=O)NC3=O)cc1)O2 (configuration not stated)  inactive
 8  Cc1cc(O)c(C(C)(C)C)cc1Sc1cc(C(C)(C)C)c(O)cc1C    active
 9                              CCC(N)(CO)CO  inactive
10  CC[C@H]1O[C@]2(CC[C@@H]1C)C[C@@H]1C[C@@H](C/C=C(\C)C[C@@H](C)/C=C/C=C3\CO[C@@H]4[C@H](O)C(C)=C[C@@H](C(=O)O1)[C@]34O)O2    active
11  CC1=NC(C)OC1C (configuration not stated)  inactive
12  CC(C)(C)C(=O)OCOC(=O)C1N2C(=O)CC2S(=O)(=O)C1(C)C (configuration not stated)  inactive
13  Cc1ccc2oc(CN(Cc3ccccc3)C(=O)Nc3c(F)cc(F)cc3F)c(-c3ccc(Cl)cc3)c2c1  inactive
14  CCCCc1oc2ccc(NS(C)(=O)=O)cc2c1C(=O)c1ccc(OCCCN(CCCC)CCCC)cc1    active
15                       N=C1N=C(N)c2ccccc21  inactive
16  CCCCCCCCOc1ccccc1C(=O)Nc1ccc(C(=O)OCC[N+](C)(CC)CC)cc1    active
17  CC(C)(C)c1ccc(C(=O)CCCN2CCC(OC(c3ccccc3)c3ccccc3)CC2)cc1    active
18                           CNC(=O)c1ccccc1  inactive
19  CCCN(CCC)c1c([N+](=O)[O-])cc(C(F)(F)F)c(N)c1[N+](=O)[O-]    active
20                                Nc1ccccc1O  inactive
21  O=C(Nc1cccc([N+](=O)[O-])c1)c1cc2ccccc2cc1O  inactive

* * *

experiment: qHTS assay to identify small molecule antagonists of the peroxisome proliferator-activated receptor delta (PPARd) signaling pathway - cell viability counter screen (AID 743213); conditions: PPARd-bla HEK293H viability, CellTiter-Glo luminescence, 17 h; series mostly up to 62 µM; further: nearly all actives have a fitted effect of over 50% in size
Results filed as inconclusive are left out. Activity calls are given as the source filed them. Calls come from the whole dose curve; as a rule, active = well fitted cell-killing curve with a large enough effect in the repeat runs; inconclusive = weak or mixed curves; inactive = no such curve, though single readings can be large or run the other way.
Labels: active, inactive

In [3]: df
Out[3]:
                                    compound     class
 0  CN(C)[C@@H]1C(=O)C(C(N)=O)=C(O)[C@@]2(O)C(=O)C3=C(O)c4c(O)ccc(Cl)c4[C@@H](O)[C@H]3C[C@@H]12  inactive
 1                     Nc1c2ccccc2nc2ccccc12  inactive
 2  CC(C)(C)C(=O)OCOC(=O)[C@@H]1N2C(=O)[C@@H](NC(=O)[C@H](N)c3ccccc3)[C@H]2SC1(C)C  inactive
 3                     Oc1cc2ccccc2c2ccccc12    active
 4  O=C(Nc1cccc(C(F)(F)F)c1)c1cc(Br)cc(Br)c1O    active
 5  O=C(NO)C1(NS(=O)(=O)c2ccc(Oc3ccc(F)cc3)cc2)CCOCC1  inactive
 6             CCOc1ccc2nc3cc(N)ccc3c(N)c2c1  inactive
 7  CCCCCCCC(=O)[O-].CCCCCCCC(=O)[O-].[Zn+2]  inactive
 8                    O=C1c2ccccc2Cc2ccccc21  inactive
 9  CCCCC(CC)CN=C(N)NC(N)=NCCCCCCN=C(N)NC(N)=NCC(CC)CCCC (stereo unspecified)    active
10  Cc1nc(-c2ccc3c(c2)CCN(CCC2CCC(NC(=O)/C=C/c4ccc(F)cc4)CC2)CC3)no1 (stereo unspecified)  inactive
11                        S=c1[nH]c2ccccc2s1  inactive
12            CCCCCOc1ccccc1/C(=C\SC)n1ccnc1  inactive
13  Cc1cc(CCN2CCN(c3nsc4ccccc34)CC2)cc2c1NC(=O)CC2(C)C    active
14  CC[C@H]1O[C@]2(CC[C@@H]1C)C[C@@H]1C[C@@H](C/C=C(\C)C[C@@H](C)/C=C/C=C3\CO[C@@H]4[C@H](O)C(C)=C[C@@H](C(=O)O1)[C@]34O)O2    active
15             N#CSc1ccc(N)c([N+](=O)[O-])c1    active
16        CC1=NC(C)OC1C (stereo unspecified)  inactive
17      O=c1cc(-c2ccc(O)cc2)oc2cc(O)cc(O)c12  inactive
18  CC(C)(C)c1ccc(C(=O)CCCN2CCC(OC(c3ccccc3)c3ccccc3)CC2)cc1    active
19             O=[N+]([O-])c1ccccc1Nc1ccccc1  inactive
20  COc1cc(/C=C/C(=O)O[C@H]2CC[C@]34C[C@]35CC[C@]3(C)[C@@H]([C@H](C)CCC=C(C)C)CC[C@@]3(C)[C@@H]5CC[C@H]4C2(C)C)ccc1O  inactive
21  CCCCCCCC[N+](CCCCCCCC)(CCCCCCCC)CCCCCCCC    active
22     CCc1cc(Cc2cc(CC)c(N)c(CC)c2)cc(CC)c1N    active
23                 CCCCCCCCOC(=O)c1ccc(O)cc1    active
24                             CCCCCCCCCCC=O  inactive
25  CCOc1nc2cccc(C(=O)OC(C)OC(=O)OC3CCCCC3)c2n1Cc1ccc(-c2ccccc2-c2nn[nH]n2)cc1 (stereo unspecified)    active
26                 CC(C)CCCCCCCCCCCCCCC(=O)O  inactive
27       COCCCC/C(=N\OCCN)c1ccc(C(F)(F)F)cc1  inactive
28                    Clc1ccc2cc3ccccc3cc2c1  inactive
29  O=C(OCC(COC(=O)c1ccccc1)(COC(=O)c1ccccc1)COC(=O)c1ccccc1)c1ccccc1  inactive
30  C/C=C1/C(=O)C[C@H]2[C@@H]3CCC4=CC(=O)CC[C@]4(C)[C@H]3CC[C@]12C  inactive
31           CCN(C(=O)N(CC)c1ccccc1)c1ccccc1  inactive
32  CN1CCN(CCC(=O)N2c3ccccc3Sc3ccc(C(F)(F)F)cc32)CC1    active
33     CCCCCCCCCCCCCCCCCC[N+](C)(C)Cc1ccccc1    active
34                Cc1cc(=O)oc2cc(N(C)C)ccc12  inactive
35               NC(=O)NS(=O)(=O)c1ccc(N)cc1  inactive
36  O=C1Cc2cc(CCN3CCN(c4nsc5ccccc45)CC3)c(Cl)cc2N1    active
37  CSc1ccc(/C=C2/C(C)=C(CC(=O)O)c3cc(F)ccc32)cc1  inactive
38                Cc1cc(C2CCCCC2)n(O)c(=O)c1    active
39       CC(NN)c1ccccc1 (stereo unspecified)  inactive
40  O=C(NOCC1CC1)c1ccc(F)c(F)c1Nc1ccc(I)cc1Cl  inactive
41                        O=c1[nH]sc2ccccc12    active
42                Nc1nc2ccccc2n1Cc1ccc(F)cc1  inactive
43                  Clc1ccc2nsnc2c1NC1=NCCN1  inactive
44             CCCCCCCCCCCCCCCCCC[N+](C)(C)C    active
45             O=S1(=O)CC(Cl)(Cl)C(Cl)(Cl)C1    active
